Target of assay: Protein phosphatase 1D (Homo sapiens)
Measurement description: Rhodamine-PBP qHTS Assay for Modulators of WT P53-Induced Phosphatase 1 (WIP1) (AID 1347425); note: % of control where 0% means no effect
Measurement context: recombinant WIP1, Rhodamine-PBP phosphate fluorescence, real-time; series mostly up to 57.5 µM
Inconclusive results are not listed. Calls of active or inactive are those of the source. Calls come from the whole dose curve; as a rule, active = well fitted curve in the direction sought with a large enough effect; inconclusive = small, poorly fitted or top-dose-only effect, or another doubt; inactive = no such curve, though single readings can be large or run the other way.
Measured property: activity change, negative = inhibition

Here's what some known entries look like.
1. Cc1coc2ccccc2c1=O	inactive
2. CCOC(=O)OCC/C(SC(=O)OCC)=C(\C)N(C=O)Cc1cnc(C)nc1N	inactive
3. O=C(CCOCCOCCOCCOCCC(=O)Nc1c(I)cc(I)c(C(=O)O)c1I)Nc1c(I)cc(I)c(C(=O)O)c1I	inactive
4. CN1CCCN(C(c2ccccc2)c2ccc(Cl)cc2)CC1 (configuration not stated)	inactive
5. CCN(CC)CC(=O)Nc1c(C)cccc1C(=O)OC	inactive

# activity change, negative = inhibition lookup, item "N#CC1(c2ccc(F)cc2)CCC(=O)CC1" inactive

Input O=C1NC2CCCCN2C12CCN(CCCN1c3ccccc3CCc3ccc(Cl)cc31)CC2 (configuration not stated) inactive

---

Target of assay: Cytochrome P450 2D6 (Homo sapiens) (UniProt P10635)
Sequence (P10635 whole entry, looked up): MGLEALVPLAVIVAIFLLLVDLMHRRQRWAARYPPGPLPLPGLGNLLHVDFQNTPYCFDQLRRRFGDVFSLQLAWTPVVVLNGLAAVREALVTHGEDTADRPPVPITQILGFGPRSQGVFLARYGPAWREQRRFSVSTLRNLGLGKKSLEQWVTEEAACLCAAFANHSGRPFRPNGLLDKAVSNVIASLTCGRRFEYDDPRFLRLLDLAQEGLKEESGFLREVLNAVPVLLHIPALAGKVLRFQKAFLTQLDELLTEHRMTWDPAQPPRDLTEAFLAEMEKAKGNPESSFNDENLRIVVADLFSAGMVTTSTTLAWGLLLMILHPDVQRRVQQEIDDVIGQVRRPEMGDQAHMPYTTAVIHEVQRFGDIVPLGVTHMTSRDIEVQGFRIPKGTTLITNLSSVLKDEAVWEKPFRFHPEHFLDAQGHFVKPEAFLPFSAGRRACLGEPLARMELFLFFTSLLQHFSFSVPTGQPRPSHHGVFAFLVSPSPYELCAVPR
Measurement description: Cytochrome P450 family 2 subfamily D member 6 (CYP2D6) small molecule antagonists: luciferase biochemical (cell-free) qHTS assay (AID 1645840); note: nearly all actives have a fitted effect of over 55% in size
Measurement context: P450-Glo CYP2D6 enzyme, luciferin luminescence, 1 h; series mostly up to 57.4 µM
Records with an inconclusive call do not appear. Active and inactive are the calls of the source. The call rests on the fitted dose curve; in most records, active means well fitted inhibition curve with a large enough effect in the repeat runs; inconclusive means weak or mixed curves; inactive means flat fitted curve, though single readings scatter.
Outcomes you can answer with include only these: 1 = active, -1 = inactive

Reference set, count: 5
1. CC(C)(C)C(O)/C=C/c1ccc2c(c1)OCO2 (stereo not given)	1
2. CCN(CC)CC(=O)OCC(=O)[C@@]1(O)CC[C@H]2[C@@H]3CCC4=CC(=O)CC[C@]4(C)[C@H]3[C@@H](O)C[C@@]21C	-1
3. CCN(CC)CCOc1ccc(/C(=C(\Cl)c2ccccc2)c2ccccc2)cc1	1
4. C=CCNc1nc(NCC=C)nc(N2CCN(C(c3ccc(F)cc3)c3ccc(F)cc3)CC2)n1	-1
5. Cc1cccc(C)c1NC(=O)c1ccc(N)cc1	-1

Test call, this molecule: "O=C(O)c1cn(C2CC2)c2cc(Cl)c(F)cc2c1=O" -1

Input CCOc1ccccc1OCC1CNCCO1 (stereo not given) -1

---

System: P93_24
Measurement description: qHTS profiling for inhibitors of Plasmodium falciparum proliferation (AID 504749); note: nearly all actives have a fitted effect of over 60% in size
Measurement context: P. falciparum in erythrocytes, SYBR Green DNA, 72 h; series mostly up to 28.7 µM
Results filed as inconclusive are left out. Calls of active or inactive are those of the source. Calls follow the shape of the dose curve; as a rule, active = well fitted inhibition curve with a large enough effect; inconclusive = small, poorly fitted or top-dose-only effect; inactive = flat fitted curve, though single readings scatter.
Outcomes you can answer with include only these: Y = active, N = inactive

Reference set, count: 5
1. CN1CCCN(C(c2ccccc2)c2ccc(Cl)cc2)CC1 (stereo unspecified)	Y
2. Nc1c2ccccc2nc2ccccc12	Y
3. CCCCCCCCCCCCCCCC[n+]1ccccc1	Y
4. CCCCCCCCCCCCCCCC[N+](C)(C)Cc1ccccc1	Y
5. CCCCCCCCCCCCCC[N+](C)(C)C	Y

Now turn to the next compound.
Test call, this compound: "O=S(=O)(O)c1ccc2nc(-c3ccccc3)[nH]c2c1" N

---

Tested on: MKL-2
Measurement description: qHTS assay to identify novel small-molecules to repurpose for Merkel cell carcinoma treatment (AID 1296009); note: nearly all actives have a fitted effect of over 60% in size
Measurement context: MCC and control cell lines, CellTiter-Glo viability, 72 h; series mostly up to 46 µM
Inconclusive results are not listed. Activity calls are given as the source filed them. Calls follow the shape of the dose curve; as a rule, active = well fitted inhibition curve with a large enough effect; inconclusive = small, poorly fitted or top-dose-only effect; inactive = flat fitted curve, though single readings scatter.
Outcomes you can answer with include only these: class 1 (active), class 0 (inactive)

Reference set, count: 5
1) Cc1cc(CCCOc2c(C)cc(-c3noc(C(F)(F)F)n3)cc2C)on1	class 0
2) O=C(OCC(COC(=O)c1cccnc1)(COC(=O)c1cccnc1)COC(=O)c1cccnc1)c1cccnc1	class 0
3) COC(=O)c1ccc(NC(C)=O)cc1OC	class 0
4) O=C(O)[C@@H](O)[C@H](O)[C@H](O)[C@@H](O)C(=O)O	class 0
5) CCCC(=O)c1cc(O)c(O)cc1O	class 1

Test call, this molecule: CC(C(=O)O)c1ccc(/C=C2\CCCCC2=O)cc1 (stereo not drawn) class 0

Input CCOC(=O)C(O)c1ccccc1 (stereo not drawn) class 0

Input "COc1c(C)c2c(c(O)c1C/C=C(\C)CCC(=O)OCCN1CCOCC1)C(=O)OC2" class 0

Input "CCN(CC)CC(=O)Nc1c(C)cccc1C(=O)OC" class 0

Input CC(C)C[C@H](NC(=O)CNC(=O)[C@H](Cc1ccc(O)cc1)NC(=O)[C@H](CO)NC(=O)[C@H](Cc1c[nH]c2ccccc12)NC(=O)[C@H](Cc1cnc[nH]1)NC(=O)[C@@H]1CCC(=O)N1)C(=O)N[C@@H](CCCN=C(N)N)C(=O)N1CCC[C@H]1C(=O)NCC(N)=O (stereo in doubt) class 0
